System: BJ
experimentNotes: Cytotoxicity against human BJ cells assessed as reduction in cell viability measured after 72 hrs by MTS assay
Format: cell-based
Could you please report measured IC50 for the items listed next?

For orientation, consider the following solved cases.
| givenSmiles | metricName | testValue |
| --- | --- | --- |
| C=C(/C=C/c1cc(OC)cc(OC)c1)[C@@H]1CC[C@]2(C(=O)O)CC[C@]3(C)[C@H](CC[C@@H]4[C@@]5(C)CC[C@H](O)C(C)(C)[C@@H]5CC[C@]43C)[C@@H]12 | IC50 | 47.6 µM |
| C=C(/C=C/c1ccc2ccccc2c1)[C@@H]1CC[C@]2(C(=O)O)CC[C@]3(C)[C@H](CC[C@@H]4[C@@]5(C)CC[C@H](O)C(C)(C)[C@@H]5CC[C@]43C)[C@@H]12 | IC50 | > 50 µM |

Then this compound:
Name the reported IC50 value associated with the compound C=C(/C=C/c1cccc(I)c1)[C@@H]1CC[C@]2(C(=O)O)CC[C@]3(C)[C@H](CC[C@@H]4[C@@]5(C)CC[C@H](O)C(C)(C)[C@@H]5CC[C@]43C)[C@@H]12 > 50 µM
